Sourced from patent US12606552B2

testSystem: AR (Homo sapiens, UniProt P10275, T878A)
Sequence (P10275 1-920 T878A): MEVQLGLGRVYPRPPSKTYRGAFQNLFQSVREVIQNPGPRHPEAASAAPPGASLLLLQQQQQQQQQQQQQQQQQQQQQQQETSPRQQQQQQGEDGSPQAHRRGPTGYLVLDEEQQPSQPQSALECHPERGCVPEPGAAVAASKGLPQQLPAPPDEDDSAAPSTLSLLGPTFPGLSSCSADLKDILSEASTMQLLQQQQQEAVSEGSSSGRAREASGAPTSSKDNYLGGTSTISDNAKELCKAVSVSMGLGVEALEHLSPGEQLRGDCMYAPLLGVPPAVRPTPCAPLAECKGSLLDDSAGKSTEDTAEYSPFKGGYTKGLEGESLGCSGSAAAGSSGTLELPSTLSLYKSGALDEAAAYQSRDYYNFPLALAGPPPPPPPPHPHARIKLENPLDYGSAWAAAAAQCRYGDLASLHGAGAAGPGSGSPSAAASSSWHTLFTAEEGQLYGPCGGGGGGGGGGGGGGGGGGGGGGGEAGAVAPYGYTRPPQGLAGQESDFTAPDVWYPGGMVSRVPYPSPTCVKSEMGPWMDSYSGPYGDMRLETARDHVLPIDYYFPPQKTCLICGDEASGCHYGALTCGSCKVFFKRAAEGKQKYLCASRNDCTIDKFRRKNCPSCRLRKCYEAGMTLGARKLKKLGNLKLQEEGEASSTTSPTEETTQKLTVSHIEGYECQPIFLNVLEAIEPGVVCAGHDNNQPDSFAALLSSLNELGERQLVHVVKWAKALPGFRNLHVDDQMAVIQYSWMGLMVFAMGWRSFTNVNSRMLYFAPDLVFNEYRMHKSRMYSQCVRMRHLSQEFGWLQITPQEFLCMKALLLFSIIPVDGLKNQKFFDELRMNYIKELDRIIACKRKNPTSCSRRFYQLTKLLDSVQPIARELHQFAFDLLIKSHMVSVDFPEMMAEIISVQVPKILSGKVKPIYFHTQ
procedureDetails: Effects of compounds on AR expression in LNCaP cells (ELISA, DC50)
Format: cell-based
Design: Measurement of the Effects of Drugs on the Expression of AR in Cells by ELISA Method; endogenous in cells; host or cells: LNCaP
appliedConditions: 24 hours of drug treatment, AR by ELISA
quantityKind: DC50 (nM)
# number only, unit nM dropped from output

Consider the following illustrative entries.
>  <compound>
Cc1ncsc1-c1cn(C)c([C@@H]2C[C@@H](O)CN2C(=O)[C@@H](NC(=O)COCCCCOc2ccc(-c3ccc(N4C(=S)N(c5ccc(C#N)c(C(F)(F)F)c5F)C(=O)C4(C)C)cn3)cc2)C(C)(C)C)n1 [Compound A220]

>  <quantityKind>
DC50

>  <unitsLabel>
nM

>  <reading>
289

$$$$
>  <compound>
Cc1ncsc1-c1ccc(CNC(=O)[C@@H]2C[C@@H](O)CN2C(=O)[C@@H](NC(=O)COCCC(F)(F)COc2ccc(-c3ncc(N4C(=S)N(c5ccc(C#N)c(C(F)(F)F)c5F)C(=O)C4(C)C)cc3F)c(C(F)(F)F)c2)C(C)(C)C)cc1 [Compound A167]

>  <quantityKind>
DC50

>  <unitsLabel>
nM

>  <reading>
204

$$$$

Sure, the documented DC50 for Cc1ncsc1-c1cn(C)c([C@@H]2C[C@@H](O)CN2C(=O)[C@@H](NC(=O)COCCCCOc2ccc(-c3ncc(N4C(=S)N(c5ccc(C#N)c(C(F)(F)F)c5F)C(=O)C4(C)C)cc3F)c(C(F)(F)F)c2)C(C)(C)C)n1 [Compound A221] is 144

Sure, the documented DC50 for CC(C)(C)[C@H](NC(=O)COCCCCOc1ccc(-c2ncc(N3C(=S)N(c4ccc(C#N)c(C(F)(F)F)c4F)C(=O)C3(C)C)cc2F)c(C(F)(F)F)c1)C(=O)N1C[C@H](O)C[C@H]1C(=O)NCc1ccc(C(N)=O)cc1 [Compound A131] is 34.8

---

testSystem: AR (Homo sapiens, UniProt P10275, T878A)
procedureDetails: Effects of compounds on AR expression in LNCaP cells (ELISA, DC50)
Type: cell-based
Set-up: Measurement of the Effects of Drugs on the Expression of AR in Cells by ELISA Method; endogenous in cells; host or cells: LNCaP
appliedConditions: 24 hours of drug treatment, AR by ELISA
quantityKind: DC50 (nM)
# number only, unit nM dropped from output

Sure, the documented DC50 for Cc1cc(C(C(=O)N2C[C@H](O)C[C@H]2C(=O)N[C@@H](CC(=O)N2CCC(Oc3ccc(-c4ncc(N5C(=S)N(c6ccc(C#N)c(C(F)(F)F)c6F)C(=O)C5(C)C)cc4F)cc3F)CC2)c2ccc(-c3scnc3C)cc2)C(C)C)on1 (some centres unmarked) [Compound A178] is 90.5

---

procedureDetails: Pharmacokinetic studies of compounds in mice
Type: in vivo
appliedConditions: male mice, intragastric administration 10 mg/kg, plasma
quantityKind: eAUC0.5-2 h (ng·h/mL)
# number only, unit ng·h/mL dropped from output

>  <entrySmiles>
Cc1ncsc1-c1ccc(CNC(=O)[C@@H]2C[C@@H](O)CN2C(=O)[C@@H](NC(=O)COCCCCOc2ccc(-c3ncc(N4C(=S)N(c5ccc(C#N)c(C(F)(F)F)c5F)C(=O)C4(C)C)cc3F)cc2)C(C)(C)C)cc1

>  <unitsLabel>
ng·h/mL

>  <eAUC0.5-2 h>
373

$$$$

From here, focus on the item given below.
Sure, the documented eAUC0.5-2 h for Cc1ncsc1-c1ccc(CNC(=O)[C@@H]2C[C@@H](O)CN2C(=O)[C@@H](NC(=O)COCCCCOc2ccc(-c3ncc(N4C(=S)N(c5ccc(C#N)c(C(F)(F)F)c5F)C(=O)C4(C)C)cc3F)cc2C#N)C(C)(C)C)cc1 is 187

---

procedureDetails: Pharmacokinetic studies of compounds in mice
Format: in vivo
appliedConditions: male mice, intragastric administration 10 mg/kg, plasma
quantityKind: eAUC0.5-2 h (ng·h/mL)
# number only, unit ng·h/mL dropped from output

Consider the following illustrative entries.
>  <compound>
CC1(C)C(=O)N(c2ccc(C#N)c(C(F)(F)F)c2F)C(=S)N1c1ccc(-c2ccc(OCCNC(=O)COc3cccc4c3C(=O)N(C3CCC(=O)NC3=O)C4=O)c(F)c2)nc1 (stereo not shown)

>  <unitsLabel>
ng·h/mL

>  <eAUC0.5-2 h>
71

$$$$
>  <compound>
Cc1ncsc1-c1ccc(CNC(=O)[C@@H]2C[C@@H](O)CN2C(=O)[C@@H](NC(=O)COCCOCCOc2ccc(-c3ncc(N4C(=S)N(c5ccc(C#N)c(C(F)(F)F)c5F)C(=O)C4(C)C)cc3F)cc2F)C(C)(C)C)cc1

>  <unitsLabel>
ng·h/mL

>  <eAUC0.5-2 h>
96

$$$$
>  <compound>
Cc1ncsc1-c1ccc([C@H](CC(=O)N2CCC(Oc3ccc(-c4ncc(N5C(=S)N(c6ccc(C#N)c(C(F)(F)F)c6F)C(=O)C5(C)C)cc4F)cc3F)CC2)NC(=O)[C@@H]2C[C@@H](O)CN2C(=O)[C@@H](NC(=O)C2(F)CC2)C(C)(C)C)cc1

>  <unitsLabel>
ng·h/mL

>  <eAUC0.5-2 h>
697

$$$$
>  <compound>
Cc1ncsc1-c1ccc(CNC(=O)[C@@H]2C[C@@H](O)CN2C(=O)[C@@H](NC(=O)COCCCCOc2c(F)cc(-c3ncc(N4C(=S)N(c5ccc(C#N)c(C(F)(F)F)c5F)C(=O)C4(C)C)cc3C(F)(F)F)cc2F)C(C)(C)C)cc1

>  <unitsLabel>
ng·h/mL

>  <eAUC0.5-2 h>
950

$$$$
>  <compound>
Cc1ncsc1-c1ccc(CNC(=O)[C@@H]2C[C@@H](O)CN2C(=O)[C@@H](NC(=O)COCCCCOc2ccc(-c3ncc(N4C(=S)N(c5ccc(C#N)c(C(F)(F)F)c5F)C(=O)C4(C)C)cn3)cc2F)C(C)(C)C)cc1

>  <unitsLabel>
ng·h/mL

>  <eAUC0.5-2 h>
297

$$$$

Sure, the documented eAUC0.5-2 h for Cc1ncsc1-c1ccc(CNC(=O)[C@@H]2C[C@@H](O)CN2C(=O)[C@@H](NC(=O)COCCCCCOc2c(F)cc(-c3ncc(N4C(=S)N(c5ccc(C#N)c(C(F)(F)F)c5F)C(=O)C4(C)C)cc3F)cc2F)C(C)(C)C)cc1 is 1690

Sure, the documented eAUC0.5-2 h for Cc1ncsc1-c1ccc2[nH]c([C@@H]3C[C@@H](O)CN3C(=O)[C@@H](NC(=O)COCCCCOc3ccc(-c4ncc(N5C(=S)N(c6ccc(C#N)c(C(F)(F)F)c6F)C(=O)C5(C)C)cc4F)cc3F)C(C)(C)C)nc2c1 is 471

Sure, the documented eAUC0.5-2 h for Cc1ncsc1-c1ccc(CNC(=O)[C@@H]2C[C@@H](O)CN2C(=O)[C@@H](NC(=O)COCCCCOc2ccc(-c3ncc(N4C(=S)N(c5ccc(C#N)c(C(F)(F)F)c5F)C(=O)C4(C)C)cc3F)c(F)c2)C(C)(C)C)cc1 is 410

Sure, the documented eAUC0.5-2 h for Cc1ncsc1-c1ccc(CNC(=O)[C@@H]2C[C@@H](O)CN2C(=O)[C@@H](NC(=O)COCCCCOc2ccc(-c3ccc(N4C(=S)N(c5ccc(C#N)c(C(F)(F)F)c5F)C(=O)C4(C)C)cn3)cn2)C(C)(C)C)cc1 is 720

Sure, the documented eAUC0.5-2 h for Cc1ncsc1-c1ccc(CNC(=O)[C@@H]2C[C@@H](O)CN2C(=O)[C@@H](NC(=O)COCCCCCOc2ccc(-c3ccc(N4C(=S)N(c5ccc(C#N)c(C(F)(F)F)c5F)C(=O)C4(C)C)cn3)cc2)C(C)(C)C)cc1 is 189

Sure, the documented eAUC0.5-2 h for Cc1ncsc1-c1ccc([C@H](C)NC(=O)[C@@H]2C[C@@H](O)CN2C(=O)[C@@H](NC(=O)COCCCCOc2ccc(-c3ncc(N4C(=S)N(c5ccc(C#N)c(C(F)(F)F)c5F)C(=O)C4(C)C)cc3C(F)(F)F)cc2F)C(C)(C)C)cc1 is 993

Sure, the documented eAUC0.5-2 h for Cc1ncsc1-c1ccc(CNC(=O)[C@@H]2C[C@@H](O)CN2C(=O)[C@@H](NC(=O)COCCCCOc2c(F)cc(-c3ccc(N4C(=S)N(c5ccc(C#N)c(C(F)(F)F)c5F)C(=O)C4(C)C)cn3)cc2F)C(C)(C)C)cc1 is 984
